# targetOrTestSystem: rat B1R (bradykinin receptor 1) (Rattus norvegicus, UniProt P97583)
# Construct: expressed in transfected cells; host or cells: CHO K1 cells
# Sequence (P97583 whole entry): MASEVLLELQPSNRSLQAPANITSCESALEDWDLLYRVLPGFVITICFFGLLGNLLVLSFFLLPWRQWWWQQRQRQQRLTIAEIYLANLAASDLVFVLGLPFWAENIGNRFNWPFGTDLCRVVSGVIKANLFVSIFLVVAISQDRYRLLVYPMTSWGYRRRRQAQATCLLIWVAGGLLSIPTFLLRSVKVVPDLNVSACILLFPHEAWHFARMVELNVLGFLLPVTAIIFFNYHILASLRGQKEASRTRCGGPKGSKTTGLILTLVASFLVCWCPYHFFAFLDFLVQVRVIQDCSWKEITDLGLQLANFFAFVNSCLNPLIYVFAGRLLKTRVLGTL
# assayDetails: FLIPR Ca2+ assay (Fluo-4) on CHO K1 cells stably transfected with the B1R gene of the rat (rB1R cells): % inhibition at 10 μM / IC50, agonist Des-Arg9-bradykinin
# Assay type: cell-based
# measurementConditions: CHO-K1, rat B1R
Counter-ions that a name gives are not always drawn.
attributeMeasured: inhibition at 10 µM (%)
One number for each entry, in %.

Solved cases (6 shown):
// returns reported inhibition at 10 µM for input O=C(NC1CCc2ccc(C(=O)N3CCC4(CCN(c5ccncc5)CC4)C3)cc21)c1c(F)cccc1Cl (stereo not shown) 108

// returns reported inhibition at 10 µM for input O=C(NC1CCc2ccc(C(=O)N3CCC4(CCN(Cc5c(F)cccc5Cl)CC4)CC3)cc21)c1cc(C(F)(F)F)ccc1Cl (stereo not shown) 67

// returns reported inhibition at 10 µM for input O=C(NC1CCc2ccc(C(=O)N3CCC4(CC3)CCN(c3ccncc3)CC4)cc21)c1ccccc1Cl (stereo not shown) 106

// returns reported inhibition at 10 µM for input CC1(C)Cc2ccc(C(=O)N3CCC4(CC3)CCN(c3ccncc3)CC4)cc2C1NC(=O)c1cc(F)ccc1Cl (stereo not shown) 105

// returns reported inhibition at 10 µM for input O=C(NC1CCc2ccc(C(=O)N3CCC4(CCN(Cc5ccc(F)cc5F)CC4)CC3)cc21)c1c(F)cccc1Cl (stereo not shown) 91

// returns reported inhibition at 10 µM for input O=C(NC1CCc2ccc(C(=O)N3CCC4(CC3)CCN(c3ccncc3)C4)cc21)c1cccc(C(F)(F)F)c1Cl (stereo not shown) 98

Required: inhibition at 10 µM, one value per compound below.
1. O=C(c1ccc2c(c1)CC[C@H]2N1Cc2cccc(Cl)c2C1=O)N1CCC2(CC1)CCN(c1ccncc1)CC2
2. CCC(CC)CN1CCC2(CC1)CCN(C(=O)c1ccc3c(c1)C(NC(=O)c1c(F)cccc1Cl)CC3)C2 (stereo not shown)
3. O=C(NC1CCCCc2ccc(C(=O)N3CCC4(CC3)CCN(c3ccncc3)CC4)cc21)c1ccccc1Cl (stereo not shown)
4. CN(C)C1(c2ccc(F)cc2)CCC2(CCN(C(=O)c3ccc4c(c3)C(NC(=O)c3ccccc3Cl)CC4)CC2)CC1 (stereo not shown)
5. Cc1cc(N2CCC3(CCN(C(=O)c4ccc5c(c4)[C@H](NC(=O)c4ccccc4Cl)CC5)C3)CC2)cc(C)n1 [Example H-111, hydrochloride]
6. O=C(NC1CCc2ccc(C(=O)N3CCC4(CCN(c5ccnc(C(F)(F)F)n5)CC4)C3)cc21)c1ccccc1Cl (stereo not shown)
7. CC1(C)CC(NC(=O)c2ccc(F)cc2Cl)c2cc(C(=O)N3CCC4(CC3)CCN(c3ccncc3)CC4)ccc21 (stereo not shown)

103
105
99
103
102
96
107

Required: inhibition at 10 µM, one value per compound below.
1. Cn1nnc2cc(CN3CCC4(CC3)CCN(C(=O)c3ccc5c(c3)C(NC(=O)c3cc(Cl)ccc3F)CC5)CC4)ccc21 (stereo not shown)
2. CC1(C)Cc2ccc(C(=O)N3CCC4(CC3)CCN(c3ccncc3)CC4)cc2C1NC(=O)c1ccc(Cl)cc1Cl (stereo not shown)

1: 82; 2: 101

Required: inhibition at 10 µM, one value per compound below.
1. COc1ccc(C(=O)N(C)C2CCc3ccc(C(=O)N4CCC5(CC4)CCN(c4ccncc4)CC5)cc32)c(Cl)c1 (stereo not shown)
2. CCn1cc(CN2CCC3(CC2)CCN(C(=O)c2ccc4c(c2)C(NC(=O)c2ccccc2Cl)CC4)C3)c(C)n1 (stereo not shown)
3. N#Cc1cc(S(=O)(=O)N2CCC3(CCN(C(=O)c4ccc5c(c4)C(N(C(=O)c4ccccc4Cl)C4CC4)CC5)C3)CC2)ccc1F (stereo not shown)
4. O=C(NC1CCc2ccc(C(=O)N3CCC4(CCN(Cc5ccncc5)CC4)CC3)cc21)c1cc(Cl)ccc1F (stereo not shown)
5. O=C(NC1CCc2ccc(C(=O)N3CCC4(CCN(Cc5ccc[nH]5)CC4)C3)cc21)c1cc(Cl)ccc1F (stereo not shown)
6. O=C(NC1CCc2ccc(C(=O)N3CCC4(CCN(Cc5ccc(F)cc5F)CC4)CC3)cc21)c1cc(C(F)(F)F)ccc1Cl (stereo not shown)
7. N#Cc1ccc(CN2CCC3(CC2)CCN(C(=O)c2ccc4c(c2)C(NC(=O)c2c(F)cccc2Cl)CC4)C3)cc1 (stereo not shown)
8. CC(C)CN1CCC2(CC1)CCN(C(=O)c1ccc3c(c1)C(NC(=O)c1cc(C(F)(F)F)ccc1Cl)CC3)C2 (stereo not shown)

1. 99
2. 68
3. 67
4. 54
5. 54
6. 73
7. 83
8. 76

Required: inhibition at 10 µM, one value per compound below.
1. CC(C)(C)CC(=O)NC1CCc2ccc(C(=O)N3CCC4(CC3)CCN(c3ccncc3)CC4)cc21 (stereo not shown)
2. CN(C)c1ncc(CN2CCC3(CC2)CCN(C(=O)c2ccc4c(c2)C(NC(=O)c2ccccc2Cl)CC4)C3)cn1 (stereo not shown)
3. COc1cc(C)c(S(=O)(=O)NC2CCc3ccc(C(=O)N4CCC5(CC4)CCN(c4ccncc4)C5)cc32)c(C)c1 (stereo not shown)
4. O=C(N[C@@H]1CCc2ccc(C(=O)N3CCC4(CCCN(c5ccncc5)C4)CC3)cc21)c1ccccc1Cl
5. O=C(c1ccc2c(c1)C(NS(=O)(=O)c1cccc(C(F)(F)F)c1)CC2)N1CCC2(CC1)CCN(c1ccncc1)CC2 (stereo not shown)

1: 104; 2: 90; 3: 93; 4: 101; 5: 98
